TARGET UNDER TEST: T1, Motavizumab fragment of antigen binding (Fab)
T1 construct: also called motavizumab Fab
T1 sequence (VH, as listed by the source, chain 1 of 2): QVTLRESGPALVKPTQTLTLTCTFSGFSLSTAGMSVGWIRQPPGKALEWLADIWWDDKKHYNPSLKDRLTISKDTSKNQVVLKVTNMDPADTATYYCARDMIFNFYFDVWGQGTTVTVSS
T1 sequence (VL, as listed by the source, chain 2 of 2): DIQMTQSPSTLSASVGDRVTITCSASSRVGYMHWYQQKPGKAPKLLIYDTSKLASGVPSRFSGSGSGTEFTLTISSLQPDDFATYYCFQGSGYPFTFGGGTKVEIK
PROTOCOL NOTES: SPR (Biacore), motavizumab Fab immobilised, immunogen injected

BINDER	Kd (µM)
1s2xa_003 (designed binder, also called Cag-Z) GSPNSRVDELGFNEAERQKILDSNSSLMRNANEVRDKFIQNYATSLKDSNDPQDFLRRVQELRINMQKNFISFDAYYNYLNNLVLASANRASQELSFANDTIKNNDTKKLFSNEIADNFNNFTADEVARISDLVASYLPREYLPPFIDGNMMGVAFQILGIDDFGKKLNEIVQDIGTK	3
1s2xa_004 (designed binder) GSPNSRVDELGFNEAERQKILDSNSSLMRNANEVRDKFIQNYATSLKDSNDPQDFLRRVQELRINMQKNFISFDAYYNYLNNLVLASANRASQELSFINDTIKNNDTKKLFSNEAADNFNNFTADEVARISDLVASYLPREYLPPFIDGNMMGVAFQILGIDDFGKKLNEIVQDIGTK	3.95
1s2xa_002 (designed binder) GSPNSRVDELGFNEAERQKILDSNSSLMRNANEVRDKFIQNYATSLKDSNDPQDFLRRVQELRINMQKNFISFDAYYNYLNNLVLASANRASQELSFINDTIKNNDTKKLFSNEAADNFNNFTADEVARISDLVASYLPREYLPPFIDGNMMGVAFQILGIDDFGKKLNEIVQDIGTKY	3.64
1s2xa_001 (designed binder) GSPNSRVDELGFNEAERQKILDSNSSLMRNANEVRDKFIQNYATSLKDSNDPQDFLRRVQELRINMQKNFISFDAYYNYLNNLVLASANRCSQELSFANDTIKNNDTKKLFSNEIADNFNNFTADEVARISDLVASYLPREYLPPFIDGNMMGVAFQILGIDDFGKKLNEIVQDIGTKY	4.75
